- TESTED SYSTEM: human EP3 receptor (Homo sapiens, UniProt P43115)
- Sequence (P43115 whole entry): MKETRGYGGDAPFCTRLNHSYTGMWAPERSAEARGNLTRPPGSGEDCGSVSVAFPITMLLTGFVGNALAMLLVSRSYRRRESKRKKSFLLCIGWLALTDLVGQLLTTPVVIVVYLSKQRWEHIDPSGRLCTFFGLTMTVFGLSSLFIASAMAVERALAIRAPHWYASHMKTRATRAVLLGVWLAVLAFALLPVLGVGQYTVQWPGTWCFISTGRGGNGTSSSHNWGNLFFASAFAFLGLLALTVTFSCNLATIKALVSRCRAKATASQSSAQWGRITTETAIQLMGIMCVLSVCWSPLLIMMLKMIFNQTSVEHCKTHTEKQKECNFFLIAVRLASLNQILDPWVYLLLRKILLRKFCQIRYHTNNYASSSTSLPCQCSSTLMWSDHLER
- TEST METHOD NOTES: Cellular in vitro assay for determining EP3 receptor activity (human EP3 cell line, sulprostone-stimulated calcium luminescence)
- RECORDED CONDITIONS: CHO cells expressing human EP3 and mitochondrial Clytin; antagonist mode, sulprostone at EC50; read-out: EP3 CHO mtCLY ANTAG IC50
EXPERIMENTAL ENDPOINT: pIC50
Give bare numbers, as −log10 of the molar value.

>>> print(df.to_string())
                                   molecule  reading
0  COc1ccc(C2(NC(=O)c3cc4c(=O)[nH]c(-c5ccc6ccccc6c5)cn4n3)CN(C(=O)OC(C)(C)C)C2)cc1 [Example 1-57]     8.31
1  Cc1ncc(-c2cn3nc(C(=O)N[C@@H](c4ccc(F)cc4)C(C)(C)O)c(C4CC4)c3c(=O)[nH]2)cc1Cl [6-579]     9.07
2  Cc1ccc(-c2cn3nc(C(=O)NCCN(CC(F)F)C4CC4)c(C4CC4)c3c(=O)[nH]2)cc1F [6-379]     8.74
3  Cc1ccc(-c2[nH]c(=O)c3c(C4CC4)c(C(=O)N[C@@H](c4ccc(F)cc4)C(C)(C)O)nn3c2C#N)cc1C [6-617]     8.12
4  COC[C@H](NC(=O)c1cc2c(=O)[nH]c(-c3ccc4c(c3)OCCO4)cn2n1)c1ccccc1 [6-46]     8.61

Fill in pIC50 for each of the 2 molecules listed.
1. CCC(CNC(=O)c1cc2c(=O)[nH]c(-c3ccc4ccccc4c3)cn2n1)n1cc(Cl)cn1 (stereo not shown) [Example 2-10]
2. Cc1ccc(-c2cn3nc(C(=O)NCC(N)C(F)(F)F)c(C4CC4)c3c(=O)[nH]2)cc1F (single isomer, unassigned) [6-397]

Data returned:
8.77
8.46

====

For each entry below, report its pIC50 value.
- TESTED SYSTEM: human EP3 receptor (Homo sapiens, UniProt P43115)
- TEST METHOD NOTES: Cellular in vitro assay for determining EP3 receptor activity (human EP3 cell line, sulprostone-stimulated calcium luminescence)
- RECORDED CONDITIONS: CHO cells expressing human EP3 and mitochondrial Clytin; antagonist mode, sulprostone at EC50; read-out: EP3 CHO mtCLY ANTAG IC50
- Method: B-1. Cellular In Vitro Assay for Determining EP3 Receptor Activity The identification of antagonists of the EP3 receptor from humans and rats as well as the quantification of the activity of the compounds of the invention was carried out using recombinant cell lines. […] Antagonists inhibit the receptor signaling, leading to reduced calcium release and luminescence. The bioluminescence of the cell lines is detected using a suitable luminometer (Trends Pharmacol. Sci. 1996, 17, 235-237). […]
One number for each entry, as −log10 of the molar value.

Fill in pIC50 for each of the 4 compounds listed.
1. Cc1cccc2ncc(-c3cn4nc(C(=O)NC(C)c5cccnc5)c(C(C)C)c4c(=O)[nH]3)cc12 (stereo not shown)
2. Cc1c(C(=O)NC(C)c2ccc(Cl)c(Cl)c2)nn2c(C)c(-c3ccc4ccccc4c3)[nH]c(=O)c12 (stereo not shown)
3. Cc1ccc(-c2cn3nc(C(=O)NC4(c5ccc(F)cc5)COC4)cc3c(=O)[nH]2)cc1C
4. Cc1ccc(-c2cn3nc(C(=O)N[C@H](C)CO)c(C4CC4)c3c(=O)[nH]2)cc1C

Data returned:
1: 8.62; 2: 8.14; 3: 8.82; 4: 8.59

Fill in pIC50 for each of the 6 compounds listed.
1. CC(C)(C)OC(=O)NCC(NC(=O)c1cc2c(=O)[nH]c(-c3ccc4c(c3)OCCO4)cn2n1)c1ccc(F)cc1 (stereo not shown)
2. Cc1cccc2ncc(-c3cn4nc(C(=O)NC5Cc6ccccc6C5)c(C(C)C)c4c(=O)[nH]3)cc12
3. COCc1c(C(=O)N[C@@H](c2ccc(F)cc2)C(C)(C)O)nn2cc(-c3ccc(Cl)c(C)c3)[nH]c(=O)c12
4. Cc1c(C(=O)NC(c2cccc(F)c2)C(F)F)nn2c(C)c(-c3ccc4ccccc4c3)[nH]c(=O)c12 (stereo not shown)
5. Cc1ccc(-c2cn3nc(C(=O)NC4(c5ccc(F)cc5)CN(C)C4)c(C)c3c(=O)[nH]2)cc1Cl
6. Cc1cc(-c2cn3nc(C(=O)NC4(c5ccccc5)CCOCC4)c(C4CC4)c3c(=O)[nH]2)ccc1Cl

Data returned:
8.50
8.89
8.50
8.68
8.14
8.97

====

- TESTED SYSTEM: human EP3 receptor (Homo sapiens, UniProt P43115)
- TEST METHOD NOTES: Cellular in vitro assay for determining EP3 receptor activity (human EP3 cell line, sulprostone-stimulated calcium luminescence)
- RECORDED CONDITIONS: CHO cells expressing human EP3 and mitochondrial Clytin; antagonist mode, sulprostone at EC50; read-out: EP3 CHO mtCLY ANTAG IC50
- Procedure: B-1. Cellular In Vitro Assay for Determining EP3 Receptor Activity The identification of antagonists of the EP3 receptor from humans and rats as well as the quantification of the activity of the compounds of the invention was carried out using recombinant cell lines. […] Antagonists inhibit the receptor signaling, leading to reduced calcium release and luminescence. The bioluminescence of the cell lines is detected using a suitable luminometer (Trends Pharmacol. Sci. 1996, 17, 235-237). […]
Each entry falls into one class according to its IC50; the ranges are lower band = under 0.9 nM, central band = from 0.9 nM up to 2 nM, upper band = 2 nM and over

Data request: # classify by IC50 band: "Cc1ccc(-c2cn3nc(C(=O)N[C@H](CCO)c4ccc(F)cc4)c(C4CC4)c3c(=O)[nH]2)cc1C"
Data returned: lower band

Data request: Item: O=C(NC(c1ccc(F)cc1)C1(O)CC1)c1nn2cc(-c3ccc(Cl)c(F)c3)[nH]c(=O)c2c1C1CC1 (racemic) [6-96]
Data returned: lower band

Data request: Item: Cc1ccc(-c2cn3nc(C(=O)NCC(C)(N)C(F)(F)F)c(C(F)(F)F)c3c(=O)[nH]2)cc1Cl (single isomer, unassigned) [6-170]
Data returned: upper band

Data request: Item: CC(NC(=O)c1nn2cc(-c3ccc4ccccc4c3)[nH]c(=O)c2c1C#N)c1ccccc1OC(F)F (stereo not shown)
Data returned: central band

Data request: Item: "Cc1ccc(-c2cn3nc(C(=O)N[C@H](C)C(C)C)c(C(C)C)c3c(=O)[nH]2)cc1C"
Data returned: central band

Data request: Item: "Cc1ccc(-c2cn3nc(C(=O)N[C@@H](CO)C(F)(F)F)c(C4CC4)c3c(=O)[nH]2)cc1F"
Data returned: lower band

Data request: Item: "COCc1c(C(=O)N[C@@H](c2ccc(F)cc2)C(F)(F)CO)nn2cc(-c3ccc(Cl)c(C)c3)[nH]c(=O)c12"
Data returned: central band

Data request: Item: Cc1ccc(-c2cn3nc(C(=O)NC(C)C4CCC4)c(C(F)(F)F)c3c(=O)[nH]2)cc1Cl (racemic) [6-193]
Data returned: upper band

Data request: Item: COc1ccc(C(CCO)NC(=O)c2cc3c(=O)[nH]c(-c4ccc5ccccc5c4)cn3n2)cc1 (stereo not shown)
Data returned: central band

Data request: Item: "Cc1cccc2ncc(-c3cn4nc(C(=O)NCCCS(C)(=O)=O)c(C(C)C)c4c(=O)[nH]3)cc12"
Data returned: central band

Data request: Item: "COc1ccc([C@@H](C)NC(=O)c2nn3cc(-c4ccc(Cl)c(F)c4)[nH]c(=O)c3c2C2CC2)cn1"
Data returned: central band

Data request: Item: "Cc1ccc(-c2cn3nc(C(=O)N[C@H](C)C4CC4)c(C(F)(F)F)c3c(=O)[nH]2)cc1C"
Data returned: lower band

Data request: Item: "Cc1c(C(=O)NCc2ccncc2)nn2c(C)c(-c3ccc4ccccc4c3)[nH]c(=O)c12"
Data returned: upper band

====

For each entry below, report its pIC50 value.
- TESTED SYSTEM: UniProt:P43115
- TEST METHOD NOTES: Cellular in vitro assay for determining EP3 receptor activity (human EP3 cell line, sulprostone-stimulated calcium luminescence)
- RECORDED CONDITIONS: CHO cells expressing human EP3 and mitochondrial Clytin; antagonist mode, sulprostone at EC50; read-out: EP3 CHO mtCLY ANTAG IC50
One number for each entry, as −log10 of the molar value.

Worked examples, 5 molecules total:
In [3]: df
Out[3]:
                                   molecule  experimental_endpoint  reading
0  CC(C)c1c(C(=O)NC2(c3ccc(F)cc3)CN(C)C2)nn2cc(-c3cccc(Cl)c3)[nH]c(=O)c12                  pIC50     8.47
1  Cc1ccc(-c2cn3nc(C(=O)NC(C)c4ccc(O)cc4)cc3c(=O)[nH]2)cc1C (single isomer, unassigned) [6-349]                  pIC50     9.06
2  Cc1cc(C)n(C(CNC(=O)c2cc3c(=O)[nH]c(-c4ccc5ccccc5c4)cn3n2)C(C)C)n1 (stereo not drawn)                  pIC50     8.10
3  COC[C@H](NC(=O)c1cc2c(=O)[nH]c(-c3ccc4ccccc4c3)cn2n1)c1ccccc1                  pIC50     8.60
4  COc1ccc(CNC(=O)c2cc3c(=O)[nH]c(-c4ccc5ccccc5c4)cn3n2)cc1OC                  pIC50     8.73

Fill in pIC50 for each of the 7 molecules listed.
1. Cc1ccc(-c2cn3nc(C(=O)NCC(O)(C(F)(F)F)C(F)(F)F)c(C4CC4)c3c(=O)[nH]2)cc1Cl
2. O=C(NCCc1ccc(F)cc1)c1cc2c(=O)[nH]c(-c3ccc4ccccc4c3)cn2n1
3. CCn1ccc(C(C)NC(=O)c2nn3c(C)c(-c4ccc5ccccc5c4)[nH]c(=O)c3c2C)n1 (stereo not drawn)
4. O=C(NC1CCN(CC(F)F)C1)c1nn2cc(-c3ccc4ccccc4c3)[nH]c(=O)c2c1C(F)(F)F (single isomer, unassigned) [6-519]
5. Cc1cccc2ncc(-c3cn4nc(C(=O)N[C@@H]5CCCc6ccccc65)c(C(C)C)c4c(=O)[nH]3)cc12
6. C[C@@H](NC(=O)c1cc2c(=O)[nH]c(-c3ccc4c(c3)CCC4)cn2n1)c1ccc(F)cc1
7. Cc1ccc(-c2cn3nc(C(=O)NC(c4ccc(C(F)(F)F)cc4)C(C)(C)O)c(C4CC4)c3c(=O)[nH]2)cc1C (single isomer, unassigned) [6-459]

Data returned:
8.57
8.33
8.59
8.16
8.11
8.46
8.25

Fill in pIC50 for each of the 3 molecules listed.
1. CC(CN1CCOCC1)NC(=O)c1nn2cc(-c3ccc4ccccc4c3)[nH]c(=O)c2c1C(F)(F)F (single isomer, unassigned) [6-524]
2. Cc1ccc(-c2cn3nc(C(=O)N[C@@H](c4ccc(F)cc4)C(C)(C)O)c(C)c3c(=O)[nH]2)cc1F
3. CC(C)(O)[C@@H](NC(=O)c1nn2cc(-c3ccc4c(c3)OCCO4)[nH]c(=O)c2c1C1CC1)c1ccc(F)cc1

Data returned:
1: 8.15; 2: 9.05; 3: 8.27

Fill in pIC50 for each of the 3 molecules listed.
1. Cc1cc(-c2cn3nc(C(=O)N[C@@H](c4ccc(F)cc4)C(C)(C)O)c(C(F)(F)F)c3c(=O)[nH]2)ccc1F
2. COC(=O)N1CC(NC(=O)c2cc3c(=O)[nH]c(-c4ccc5ccccc5c4)cn3n2)(c2ccc(F)cc2)C1
3. Cc1cc(-c2cn3nc(C(=O)N[C@H]4CCN(C5CC5)C4)c(C4CC4)c3c(=O)[nH]2)ccc1Cl (single isomer, unassigned) [6-324]

Data returned:
[8.56, 8.45, 9.01]
